The following molecules are shown together with reported combination Emax values.
- System: EW-3 (Ewing's Sarcoma)
- assay.notes: combination Emax (second highest fraction inhibited in the dose matrix, 72 h); higher = more inhibition; extreme values may be limits of the assay
experimental.endpoint: combination Emax

molecule="CC1(C)CCC(CN2CCN(c3ccc(C(=O)NS(=O)(=O)c4ccc(NCC5CCOCC5)c([N+](=O)[O-])c4)c(Oc4cnc5[nH]ccc5c4)c3)CC2)=C(c2ccc(Cl)cc2)C1 [Venetoclax] + Cn1cnc2c(F)c(Nc3ccc(Br)cc3Cl)c(C(=O)NOCCO)cc21 [Selumetinib] (first compound max 1 µM, 7x7, partner max 3 µM)" target_under_test="EW-3 (Ewing's Sarcoma)" observed_value=0.643
molecule="C[C@@H](Oc1cc(-c2cnn(C3CCNCC3)c2)cnc1N)c1c(Cl)ccc(F)c1Cl [Crizotinib] + Cn1cnc2c(F)c(Nc3ccc(Br)cc3Cl)c(C(=O)NOCCO)cc21 [Selumetinib] (first compound max 10 µM, 7x7, partner max 10 µM)" target_under_test="EW-3 (Ewing's Sarcoma)" observed_value=0.525

* * *

- System: KU-19-19 (Bladder Carcinoma)
- assay.notes: Bliss excess, mean over the matrix (fraction); higher = more synergy
Listing of entries alongside the reported Bliss excess.
experimental.endpoint: Bliss excess

compound="CC(=O)c1c(C)c2cnc(Nc3ccc(N4CCNCC4)cn3)nc2n(C2CCCC2)c1=O [Palbociclib] + Cc1c2c(nn1C)CSCc1cc(n(C)n1)CSc1cc(c3ccccc3c1)OCCCc1c(C(=O)O)n(C)c3c-2c(Cl)ccc13 [AZD5991] (first compound max 10 µM, 7x7, partner max 1 µM)" experimental_endpoint="Bliss excess" observed_value=-0.0215
compound="CC1(C)CCC(CN2CCN(c3ccc(C(=O)NS(=O)(=O)c4ccc(NCC5CCOCC5)c([N+](=O)[O-])c4)c(Oc4cnc5[nH]ccc5c4)c3)CC2)=C(c2ccc(Cl)cc2)C1 [Venetoclax] + COc1cc(Nc2ncc3c(n2)-c2ccc(Cl)cc2C(c2c(F)cccc2OC)=NC3)ccc1C(=O)O [Alisertib] (first compound max 1 µM, 7x7, partner max 10 µM)" experimental_endpoint="Bliss excess" observed_value=-0.0086
compound="CCN(CCO)CCCOc1ccc2c(Nc3cc(CC(=O)Nc4cccc(F)c4)[nH]n3)ncnc2c1 [AZD2811] + O=C(c1cc(Cc2n[nH]c(=O)c3ccccc23)ccc1F)N1CCN(C(=O)C2CC2)CC1 [Olaparib] (first compound max 1 µM, 7x7, partner max 10 µM)" experimental_endpoint="Bliss excess" observed_value=0.0173

* * *

- Test system: OCUM-1 (Gastric Carcinoma)
- assay.notes: combination Emax (second highest fraction inhibited in the dose matrix, 72 h); higher = more inhibition; extreme values may be limits of the assay
// values below are reported combination Emax
experimental.endpoint: combination Emax

molecule="Cc1c2c(nn1C)CSCc1cc(n(C)n1)CSc1cc(c3ccccc3c1)OCCCc1c(C(=O)O)n(C)c3c-2c(Cl)ccc13 [AZD5991] + C[C@@H]1COCCN1C2=NC(=NC(=C2)C3(CC3)[S@](=N)(=O)C)C4=C5C=CNC5=NC=C4 [AZD6738] (first compound max 1 µM, 7x7, partner max 10 µM)" experimental_endpoint="combination Emax" observed_value=0.71
molecule="CC1(C)CCC(CN2CCN(c3ccc(C(=O)NS(=O)(=O)c4ccc(NCC5CCOCC5)c([N+](=O)[O-])c4)c(Oc4cnc5[nH]ccc5c4)c3)CC2)=C(c2ccc(Cl)cc2)C1 [Venetoclax] + COc1cc(Nc2ncc3c(n2)-c2ccc(Cl)cc2C(c2c(F)cccc2OC)=NC3)ccc1C(=O)O [Alisertib] (first compound max 1 µM, 7x7, partner max 10 µM)" experimental_endpoint="combination Emax" observed_value=0.51
molecule="COc1nnc2ccc(N3CCC(c4ccc(OCCN5CCN(C)C(=O)[C@H]5C)cc4)CC3)nn12 [AZD5153] + CC1(C)CCC(CN2CCN(c3ccc(C(=O)NS(=O)(=O)c4ccc(NCC5CCOCC5)c([N+](=O)[O-])c4)c(Oc4cnc5[nH]ccc5c4)c3)CC2)=C(c2ccc(Cl)cc2)C1 [Venetoclax] (first compound max 1 µM, 7x7, partner max 1 µM)" experimental_endpoint="combination Emax" observed_value=0.567
molecule="CC(=O)Nc1cccc(-n2c(=O)n(C3CC3)c(=O)c3c(Nc4ccc(I)cc4F)n(C)c(=O)c(C)c32)c1 [Trametinib] + Cc1nc(-c2cn3c(n2)-c2ccc(-c4cnn(C(C)(C)C(N)=O)c4)cc2OCC3)n(C(C)C)n1 [Taselisib] (first compound max 1 µM, 7x7, partner max 10 µM)" experimental_endpoint="combination Emax" observed_value=1

* * *

- Test system: GI-1 (Glioblastoma)
- assay.notes: combination Emax (second highest fraction inhibited in the dose matrix, 72 h); higher = more inhibition; extreme values may be limits of the assay
experimental.endpoint: combination Emax

molecule="NC1(C(=O)N[C@@H](CCO)c2ccc(Cl)cc2)CCN(c2ncnc3[nH]ccc23)CC1 [Capivasertib] + C[C@@H]1COCCN1C2=NC(=NC(=C2)C3(CC3)[S@](=N)(=O)C)C4=C5C=CNC5=NC=C4 [AZD6738] (first compound max 10 µM, 7x7, partner max 10 µM)" observed_value=0.944
molecule="CN(CCO)CC[C@H](CSc1ccccc1)Nc1ccc(S(=O)(=O)NC(=O)c2ccc(N3CCC([C@@H](O)c4ccccc4-c4ccc(Cl)cc4)CC3)cc2)cc1S(=O)(=O)C(F)(F)F [AZD4320] + Cn1cnc2c(F)c(Nc3ccc(Br)cc3Cl)c(C(=O)NOCCO)cc21 [Selumetinib] (first compound max 1 µM, 7x7, partner max 3 µM)" observed_value=0.801

* * *

- System: NCI-H513 (Other Solid Carcinomas)
- assay.notes: Bliss excess, mean over the matrix (fraction); higher = more synergy
experimental.endpoint: Bliss excess

molecule="Cc1cc2ncnn2cc1Nc1ncc2c(n1)n(C1CCOCC1)c(=O)n2C [AZD7648] + CN(C)CCCOc1ccc(-c2ccc3ncc4c(c3c2)n(C2CCOCC2)c(=O)n4C)cn1 [AZD0156] (first compound max 10 µM, 7x7, partner max 1 µM)" observed_value=-0.0145
molecule="CN(CCO)CC[C@H](CSc1ccccc1)Nc1ccc(S(=O)(=O)NC(=O)c2ccc(N3CCC([C@@H](O)c4ccccc4-c4ccc(Cl)cc4)CC3)cc2)cc1S(=O)(=O)C(F)(F)F [AZD4320] + Cn1cnc2c(F)c(Nc3ccc(Br)cc3Cl)c(C(=O)NOCCO)cc21 [Selumetinib] (first compound max 1 µM, 7x7, partner max 3 µM)" observed_value=0.0445
molecule="COc1cc2c(cc1OCCCCCOc1cc3c(cc1OC)C(=O)N1C=C(C)C[C@H]1C=N3)N=C[C@@H]1CC(C)=CN1C2=O [SG3199] + O=C(c1cc(Cc2n[nH]c(=O)c3ccccc23)ccc1F)N1CCN(C(=O)C2CC2)CC1 [Olaparib] (first compound max 0.001 µM, 7x7, partner max 10 µM)" observed_value=-0.0325
molecule="Cc1nc(Nc2ncc(C(=O)Nc3c(C)cccc3Cl)s2)cc(N2CCN(CCO)CC2)n1 [Dasatinib] + CC(=O)Nc1cccc(-n2c(=O)n(C3CC3)c(=O)c3c(Nc4ccc(I)cc4F)n(C)c(=O)c(C)c32)c1 [Trametinib] (first compound max 2 µM, 7x7, partner max 1 µM)" observed_value=0.0273
molecule="C=CCn1c(=O)c2cnc(Nc3ccc(N4CCN(C)CC4)cc3)nc2n1-c1cccc(C(C)(C)O)n1 [AZD1775] + O=C(c1cc(Cc2n[nH]c(=O)c3ccccc23)ccc1F)N1CCN(C(=O)C2CC2)CC1 [Olaparib] (first compound max 1 µM, partner max 10 µM)" observed_value=-0.0399
molecule="Cc1c2c(nn1C)CSCc1cc(n(C)n1)CSc1cc(c3ccccc3c1)OCCCc1c(C(=O)O)n(C)c3c-2c(Cl)ccc13 [AZD5991] + CCN(CCO)CCCOc1ccc2c(Nc3cc(CC(=O)Nc4cccc(F)c4)[nH]n3)ncnc2c1 [AZD2811] (first compound max 1 µM, 7x7, partner max 1 µM)" observed_value=-0.0026
molecule="CN(CCO)CC[C@H](CSc1ccccc1)Nc1ccc(S(=O)(=O)NC(=O)c2ccc(N3CCC([C@@H](O)c4ccccc4-c4ccc(Cl)cc4)CC3)cc2)cc1S(=O)(=O)C(F)(F)F [AZD4320] + CCN(CCO)CCCOc1ccc2c(Nc3cc(CC(=O)Nc4cccc(F)c4)[nH]n3)ncnc2c1 [AZD2811] (first compound max 1 µM, 7x7, partner max 1 µM)" observed_value=-0.0283

* * *

- Test system: MFE-319 (Endometrial Carcinoma)
- assay.notes: combination Emax (second highest fraction inhibited in the dose matrix, 72 h); higher = more inhibition; extreme values may be limits of the assay
Here the recorded combination Emax is given for each entry.
experimental.endpoint: combination Emax

compound="Cc1c2c(nn1C)CSCc1cc(n(C)n1)CSc1cc(c3ccccc3c1)OCCCc1c(C(=O)O)n(C)c3c-2c(Cl)ccc13 [AZD5991] + C=CCn1c(=O)c2cnc(Nc3ccc(N4CCN(C)CC4)cc3)nc2n1-c1cccc(C(C)(C)O)n1 [AZD1775] (first compound max 1 µM, partner max 1 µM)" target_under_test="MFE-319 (Endometrial Carcinoma)" experimental_endpoint="combination Emax" observed_value=0.913
compound="Cc1c2c(nn1C)CSCc1cc(n(C)n1)CSc1cc(c3ccccc3c1)OCCCc1c(C(=O)O)n(C)c3c-2c(Cl)ccc13 [AZD5991] + Cn1cnc2c(F)c(Nc3ccc(Br)cc3Cl)c(C(=O)NOCCO)cc21 [Selumetinib] (first compound max 1 µM, 7x7, partner max 3 µM)" target_under_test="MFE-319 (Endometrial Carcinoma)" experimental_endpoint="combination Emax" observed_value=0.604
compound="Cc1cc2ncnn2cc1Nc1ncc2c(n1)n(C1CCOCC1)c(=O)n2C [AZD7648] + C=CCn1c(=O)c2cnc(Nc3ccc(N4CCN(C)CC4)cc3)nc2n1-c1cccc(C(C)(C)O)n1 [AZD1775] (first compound max 10 µM, partner max 1 µM)" target_under_test="MFE-319 (Endometrial Carcinoma)" experimental_endpoint="combination Emax" observed_value=0.68
